# study target: Carbonic anhydrase 2 (Homo sapiens)
# method: CAII small-molecule binders, profiling panel, biochemical, small-molecule microarray, Alexa647-labelled CAII (AID 1122)
# condition info: CAII-A647 binding fluorescence, higher = more signal
A collection of compounds and their measured composite z-score
reported endpoint: composite z-score

O=C1O[C@H](c2ccccc2)[C@H](c2ccccc2)N2[C@H]1[C@@H](C(=O)Nc1nc3ccccc3s1)[C@]1(C(=O)Nc3ccc(C#CC4(O)CCCCCC4)cc31)[C@H]2c1ccc(O)cc1 = 0.415
CO[C@H]1COC(=O)[C@H](C)NC(=O)CC=C[C@@H](C)[C@H](NS(=O)(=O)c2ccc(C)cc2)COC(=O)[C@@H](OCc2ccccc2)C=C[C@@H]1C = -0.367
COCCOC(=O)N1C(=O)[C@@]2(c3cc(C#CC4=CCCCC4)ccc31)[C@H](c1ccc(O)cc1)N1[C@H](c3ccccc3)[C@H](c3ccccc3)OC(=O)[C@H]1[C@@H]2C(=O)N1CCCCCCC1 = 0.425
C=CCc1cccc([C@H]2N[C@H](C(=O)O)CC[C@@H]2C)c1 = 0.0666
[N-]=[N+]=NCc1ccccc1C[C@]1(C(N)=O)N=C(c2ccc(OCCCO)cc2)O[C@H]1c1ccccc1CN=[N+]=[N-] = 0.667
C=CC[C@]1(C(=O)N2CCCCC2)N=C(c2ccc(OCCCO)cc2)O[C@H]1c1ccccc1N=[N+]=[N-] = 0.789
CCC1=C2CN(Cc3ccccc3Br)[C@@H]([C@@H](O)Cc3ccccc3)C2C=CCC1 (some centres not stated) = 0.366

Hey, just so you know, these numbers are from PubChem BioAssay.
